compounds and their reported SARS-CoV-2 infection rate
- Tested on: A549-ACE2 infected with SARS-CoV-2
- Assay name: SARS-CoV-2 infection rate relative to DMSO; higher = more infection
- Condition description: 3 µM; 24 h
Structures can show the parent of a compound that is named as a salt.
The reply should be a number in %, with the unit left off.

| Compound | Assay target | SARS-CoV-2 infection rate (%) |
| --- | --- | --- |
| Cc1ccc(S(=O)(=O)/C=C/C#N)cc1 | A549-ACE2 infected with SARS-CoV-2 | 107 |
| Oc1ccc2c3c1O[C@H]1c4c(c5ccccc5n4Cc4ccccc4)C[C@@]4(O)[C@@H](C2)N(CC2CC2)CC[C@]314 | A549-ACE2 infected with SARS-CoV-2 | 69 |
| O=C(Nc1ncc(SCCN2CCCC2)s1)[C@]1(c2ccc(S(=O)(=O)C3CC3)cc2)C[C@H]1C1CCCCC1 | A549-ACE2 infected with SARS-CoV-2 | 27 |

q: Name the recorded SARS-CoV-2 infection rate of the compound listed here: C=C1C(=O)O[C@@H]2C[C@@]3(C)CCC[C@H](C)C3=C[C@H]12
a: 92

q: Name the recorded SARS-CoV-2 infection rate of the compound listed here: CC/C(=C(\c1ccc(O)cc1)c1ccc(OCCNC)cc1)c1ccccc1 [Endoxifen HCl]
a: 30
